Tested on: HIV-1 (IIIB strain)
Assay type: cell-based
applied_conditions: anti-HIV-1 activity, HIV-1-infected MT-4 cells
assay_readout: pEC50
pEC50 is defined as minus the log10 of a concentration measured in mol/L.

stdin: Report pEC50 for CSc1nc(C(C)c2c(F)cccc2F)c(C)c(=O)[nH]1 (stereo not shown) [MC 1060] tested on HIV-1 (IIIB strain).
stdout: 7.40

stdin: How about this compound: Cc1c(Cc2c(F)cccc2F)nc(SCC(C)C)[nH]c1=O [MC 921]
stdout: 7.00

stdin: How about this compound: CCC(C)Sc1nc(Cc2ccc([N+](=O)[O-])cc2)cc(=O)[nH]1 (stereo not shown) [MC 863]
stdout: 5.82

stdin: How about this compound: CCCNc1nc(Cc2c(F)cccc2F)cc(=O)[nH]1 [MC 1078]
stdout: 6.96

stdin: How about this compound: Cc1c(Cc2c(F)cccc2F)nc(SC2CCCC2)[nH]c1=O [MC 922]
stdout: 7.10

stdin: How about this compound: CSc1nc(Cc2c(F)cccc2F)cc(=O)[nH]1 [MC 871]
stdout: 6.09

stdin: How about this compound: CCC(C)Nc1nc(Cc2c(F)cccc2F)cc(=O)[nH]1 (stereo not shown) [MC 945]
stdout: 6.89
